# System: Hek293T
# measurement notes: Primary qHTS to identify gynecologic anti-cancer compounds using libraries of approved drugs and bioactive compounds (AID 1345084); note: nearly all actives have a fitted effect of over 55% in size
# particulars: Gynecologic cancer cell panel viability, ATPlite luminescence, 48 h, control line for the selectivity index; series mostly up to 57.5 µM
Inconclusive results are not listed. Active and inactive are the calls of the source. Calls come from the whole dose curve; as a rule, active = well fitted cell-killing curve with a large enough effect; inconclusive = small, poorly fitted or top-dose-only effect, or effect the other way; inactive = flat fitted curve, though single readings scatter.
Outcomes you can answer with include only these: label 1 (active), label 0 (inactive)

Examples with answers:
COc1ccc([C@@]2(O)c3c(ccc(CC=C(C)C)c3O)NC(=O)[C@@H]2OC)cc1	label 0
C=C1CN(Cc2ccc(C(=O)Nc3ccccc3N)cc2)C(=O)c2ccccc21	label 1
CC(C)(C)Nc1nc2cc(Cl)c(Cl)cc2nc1S(C)(=O)=O	label 1

Outcome logged for C[C@H]1CC[C@@H]2N(C1)C[C@@H]1[C@H]([C@@H](O)[C@H](O)[C@]3(O)[C@H]1C[C@@]14OC5(O)[C@@H](C[C@@H](O)[C@@H]31)[C@]4(C)CC[C@@H]5O)[C@]2(C)O in this assay:
label 0

* * *

Reported values of activity change, negative = inhibition for individual entries
# Test system: Zika virus NS2B-NS3 protease (unlinked complex)
# measurement notes: Primary screen GU Rhodamine qHTS for Zika virus inhibitors: Unlinked NS2B-NS3 protease assay (AID 1347159); note: % is set by controls: 0 for no effect and ±100 for the full control effect; nearly all actives have a fitted effect of over 60% in size
# particulars: Recombinant ZIKV NS2B-NS3 protease, Rhodamine110 substrate fluorescence; series mostly up to 107 µM
Records with an inconclusive call do not appear. Activity calls are given as the source filed them. The call rests on the fitted dose curve; in most records, active means well fitted inhibition curve with a large enough effect; inconclusive means small, poorly fitted or top-dose-only effect; inactive means no such curve, though single readings can be large or run the other way.

C[C@@H]1CC[C@]2(C(=O)O[C@@H]3O[C@H](CO)[C@@H](O)[C@H](O)[C@H]3O)CC[C@]3(C)C(=CCC4[C@@]5(C)C[C@@H](O)[C@H](O)[C@@](C)(C(=O)O[C@H]6[C@H](O)C[C@@]7(C)C(CC[C@]8(C)C7CC=C7[C@H]9[C@](C(=O)O[C@@H]%10O[C@H](CO)[C@@H](O)[C@H](O)[C@H]%10O)(CC[C@@H](C)[C@@]9(C)O)CC[C@]78C)[C@@]6(CO)C(=O)O)C5CC[C@]43C)[C@@H]2[C@]1(C)O (stereo partly drawn)	-16.4% [at 19.1 µM] (inactive)
C[C@@H]1O[C@@H](O[C@H]2[C@H](OC(=O)[C@]34CCC(C)(C)C[C@H]3C3=CCC5[C@@]6(C)C[C@H](O)[C@H](O[C@@H]7O[C@H](CO)[C@@H](O[C@H]8OC[C@](O)(CO)[C@H]8O)[C@H](O)[C@H]7O)[C@@](C)(CO)C6[C@H](O)C[C@@]5(C)[C@]3(C)C[C@H]4O)OC[C@H](O)[C@@H]2O)[C@H](O)[C@H](O)[C@H]1O[C@@H]1OC[C@@H](O)[C@H](O[C@@H]2OC[C@](O)(CO)[C@H]2O)[C@H]1O (stereo partly drawn)	20.8% [at 19.1 µM] (inactive)
CC(=O)N[C@@H](CCCCN)C(=O)N(C)[C@@H](CC(C)C)C(=O)N[C@H](C(=O)N(C)[C@@H](Cc1ccccc1)C(=O)N[C@H](Cc1ccccc1)C(N)=O)C(C)C	0% [at 11.5 µM] (inactive)
C[C@@H]1O[C@@H](O[C@H]2[C@H](OC(=O)[C@]34CCC(C)(C)C[C@H]3C3=CCC5[C@@]6(C)CC[C@H](O[C@@H]7O[C@H](C(=O)O)[C@@H](O)[C@H](O)[C@H]7O[C@@H]7O[C@H](CO)[C@H](O)[C@H](O)[C@H]7O)[C@@](C)(C=O)C6CC[C@@]5(C)[C@]3(C)C[C@H]4O)O[C@H](C)[C@H](O[C@@H]3O[C@H](C)[C@H](O)[C@H](O)[C@H]3O)[C@@H]2O)[C@H](O)[C@H](O)[C@H]1O[C@@H]1OC[C@@H](O)[C@H](O[C@@H]2O[C@H](CO)[C@@H](O)[C@H](O)[C@H]2O)[C@H]1O (stereo partly drawn)	4.39% [at 19.1 µM] (inactive)
COC1CC(O[C@H]2CC[C@@]3(C)C(CCC4C3[C@H](OC(C)=O)[C@@H](OC(=O)/C=C/c3ccccc3)[C@]3(C)C(C(C)=O)CC[C@]43O)C2)OC(C)C1OC1CC(OC)C(OC2CC(OC)C(OC3OC(C)C(OC4OC(CO)C(O)C(O)C4O)C(OC)C3O)C(C)O2)C(C)O1 (stereo partly drawn)	-9.68% [at 19.1 µM] (inactive)

Here is the next item to consider.
Item: C[C@@H]1O[C@@H](O[C@H]2[C@H](O)[C@@H](O[C@@H]3O[C@H](CO)[C@@H](O)[C@H](O[C@@H]4O[C@H](CO)[C@@H](O)[C@H](O)[C@H]4O)[C@H]3O)[C@H](O[C@H]3CC[C@@]4(C)C(=CC[C@@H]5C4CC[C@@]4(C)C5C[C@@H]5OC6(CC[C@@](C)(CO[C@@H]7O[C@H](CO)[C@@H](O)[C@H](O)[C@H]7O)O6)[C@@H](C)[C@@H]54)C3)O[C@@H]2CO)[C@H](O)[C@H](O)[C@H]1OC1OC(CO)C(O)C(O)C1O (stereo partly drawn) | activity change, negative = inhibition: -17.5% [at 19.1 µM] (inactive)
